# experiment.description: Human HepG2 cell viability assay in 384 well format
# Format: toxicity, cell-based
# Design: dose 125 nL, time 70.5 hour; concentration not given beside the values
# condition: HepG2 cells, read-out: Inhibition
cytotoxicity at 70.5 h values for the molecules below.
The figure you give is taken to be in %; do not add the unit.

Below, 5 molecules whose answers are already recorded.
molecule | measured.property | numeric.value
O=C(C1CC1)N1CCC2(CC1)OCCO2 | cytotoxicity at 70.5 h | -6.55
CCOC(=O)[C@@H]1[C@@H](c2ccccc2)CN2CCN(C(=O)C3CC3)C[C@H]12 | cytotoxicity at 70.5 h | 16.5
CNC(=O)Cc1ccc(NC(=O)NCc2ncc(C)s2)cc1 | cytotoxicity at 70.5 h | 8.85
CCOCCCOC(=O)c1ccc2c(c1)[nH]c(=O)n2C | cytotoxicity at 70.5 h | 18.6
COC(=O)c1ccc(OC)c(Cn2cc(Br)cn2)c1 | cytotoxicity at 70.5 h | -16.7

Query: State its cytotoxicity at 70.5 h: CNC(=O)N1CCC2(CC1)CN(C(C)C)Cc1cc(F)ccc12
Reply: -2.71

Query: Read the entry COCCCNC(=O)c1ccccc1S(C)(=O)=O and write its reported cytotoxicity at 70.5 h.
Reply: -13.3

Query: Query cytotoxicity at 70.5 h for COCc1ccc(C(=O)N(CCC#N)Cc2ccccn2)cc1
Reply: -3.02

Query: Indicate the recorded cytotoxicity at 70.5 h value for this molecule: CCOc1ccc(Cl)cc1NC(=O)N1CCC(n2cncn2)CC1
Reply: -7.8

Query: State, in one line, measured cytotoxicity at 70.5 h of CCN(Cc1cccc(NC(=O)COC)c1)C(C)=O
Reply: 27.5

Query: Return cytotoxicity at 70.5 h (reported value) for this molecule: Cc1noc(C)c1C(=O)N1C[C@@H]2COC[C@]2(COc2ccccn2)C1
Reply: 10.4

Query: Provide measured cytotoxicity at 70.5 h value, entry: Cc1cc(C2CCCN(C(=O)c3cnn(C)c3)C2)ccn1 (configuration not stated)
Reply: -8.77

Recorded values, source ChEMBL document CHEMBL3507680.
